- Test system: KM12 colon
- Assay protocol: NCI-60 one-dose screen, 48 h (100 = growth as untreated, 0 = no growth, -100 = all killed)
- Experimental setup: 10 µM unless noted
This is part of a sample that, as a whole, favours compounds with a hit. Of some 83,000 tested, about 20% had one in any assay.
Readings of growth for the listed compounds
Reported metric: growth (%)

test_smiles=CNC(=O)c1cc(Oc2ccc(NC(=O)Nc3ccc(Cl)c(SC)c3)c(F)c2)ccn1 obs_value=29.3
test_smiles=COc1ccc(-c2nc3ccc(-c4nc5ccc(N6CCN(c7ccncc7)CC6)cc5[nH]4)cc3[nH]2)cc1OC obs_value=92.8
test_smiles=CC1=NN(c2nc(-c3ccc(Cl)cc3)c(C#N)c(N3CCOCC3)n2)C(=O)C1 obs_value=99.7
test_smiles=COc1ccc(-n2nc(C)c3c(Nc4ccc(NC(=O)Nc5cc(C(F)(F)F)ccc5F)cc4)ncnc32)cc1 obs_value=16.5
test_smiles=FC(F)(F)c1[nH]ncc1-c1nc2ccc3n[nH]c(C#Cc4cccnc4)c3c2c2c1CCCC2 obs_value=22.7
test_smiles=CCCCCCN(CCCCCC)C(=N)c1ccnc2ccccc12 obs_value=71.1
test_smiles=O=C1NC(=S)N[C@H]1CC(=O)n1cnc2ccccc21 obs_value=100
test_smiles=O=C(Cc1ccc(/C=C/C(=O)c2ncc[nH]2)cc1)Nc1ccc(F)cc1 obs_value=8.05
test_smiles=COc1ccc(O)c(N=Nc2nccs2)c1 obs_value=73.3
test_smiles=COc1ccc(-c2cc(C(=O)N=Nc3c(O)[nH]c4ccc(Br)cc34)no2)cc1 obs_value=100
test_smiles=CCCCn1cnc2c(Sc3c([N+](=O)[O-])ncn3C)nc(N)nc21 obs_value=108
test_smiles=O=C1c2ccccc2OC=C(c2ccccc2)N1CCCCNc1ccc(S(=O)(=O)Nc2ncccn2)cc1 obs_value=97.5
test_smiles=O=C(COc1cccc(/C=C2\CSc3ccccc3C2=O)c1)Nc1nccs1 obs_value=-39.7
test_smiles=O=C(CCCCC(=O)N/N=C\c1ccccc1O)N/N=C\c1ccccc1O obs_value=33.6
test_smiles=CCCCN(CCCC)CCCn1c(-c2ccccc2)ccc1-c1ccccc1 obs_value=61.7
test_smiles=CC1=C[C@H]2c3c(c(O)c(O)c4oc5c(C)cccc5c(=O)c34)[C@H](c3cc(O)c(O)c4oc5c(C)cccc5c(=O)c34)[C@H]2C(C)(C)C1 obs_value=7.31
test_smiles=CN(C)c1ccc(N=Nc2ccc(Br)cn2)c(O)c1 obs_value=26.7

---

- Test system: NCI/ADR-RES ovarian
- Assay protocol: NCI-60 one-dose screen, 48 h
- Experimental setup: 10 µM unless noted
The panel holds about 83,000 compounds, 20% with a hit somewhere; the sample as a whole holds those more often. Activity calls are given as the source filed them. How the source made its calls: active means growth percent below 10; inactive means the rest.
Possible outcomes: true (1) (active), false (0) (inactive)

compound=N#Cc1c(-c2ccc(Cl)cc2)nc(NN=Cc2ccco2)nc1N1CCOCC1 label_class="false (0)"
compound=COc1ccc(S(=O)(=O)N2CCN(C)CC2)cc1NC(=O)c1[nH]c(C)c2c1CCCCC2=O label_class="false (0)"
compound=O=C(/C=C/c1cc(CN2CCOCC2)c(O)c2ncccc12)c1cc(CN2CCOCC2)c(O)c2ncccc12 label_class="false (0)"
compound="CC(=O)O[C@H]1C(=O)[C@@]2(C)[C@H]([C@H](OC(=O)c3ccccc3)[C@]3(O)C[C@H](OC(=O)[C@H](OC(=O)CCC(=O)OC4CCC(S/N=C(N)/N=C(\\N)N(C)C)CC4)[C@@H](NC(=O)c4ccccc4)c4ccccc4)C(C)=C1C3(C)C)[C@]1(OC(C)=O)CO[C@@H]1C[C@@H]2O (stereo not given in full)" label_class="false (0)"
compound=CC1(C)CC[C@]2(C(=O)Nc3ccccn3)CC[C@]3(C)C(=CC[C@@H]4[C@@]5(C)C/C(=C/c6cccnc6)C(=O)C(C)(C)[C@@H]5CC[C@]43C)[C@H]2C1 label_class="false (0)"
compound=CCOC(=O)c1cc(C(=O)c2ccc(O)c(O)c2)n2ccc(-c3ccn4c(C(=O)c5ccc(O)c(O)c5)cc(C(=O)OCC)c4c3)cc12 label_class="false (0)"
compound=C=CC(=O)Nc1cccc(Nc2nc(SC)nc(-c3cccc([N+](=O)[O-])c3)c2C#N)c1 label_class="false (0)"
compound=C#CCOc1ccc2ncnc(Nc3cccc(CNC(=O)CCl)c3)c2c1 label_class="false (0)"
compound=COc1ccc2c(c1)C(=O)/C(=C/c1ccccn1)CC2 label_class="false (0)"
compound=O=C1/C(=C/C(Cl)=C/c2ccccc2)SC(=S)N1CCc1ccc(O)cc1 label_class="true (1)"
compound=CSc1ccc(-c2ccccc(=O)c2O)cc1 label_class="true (1)"
compound=O=C1Nc2c(ccc(Cl)c2Cl)/C1=C\c1ccc(C(F)(F)F)cc1 label_class="false (0)"
compound=COc1ccc(/C=C/c2nc(-c3n[nH]c(=O)n3-c3ccccc3)c3ccccc3n2)cc1 label_class="false (0)"
compound=Cn1c(=O)c2c(nc3n(-c4ccc(Cl)cc4Cl)c(Sc4nc(-c5ccccc5)c(C#N)c(=O)[nH]4)cn23)n(C)c1=O label_class="false (0)"
compound=O=C(Nc1ccccc1Cl)c1ccc(NC2=C(Cl)C(=O)N(C3CCCCC3)C2=O)cc1 label_class="false (0)"
compound="C=CCSSc1ncnc2c1ncn2C1OC(CO)C(O)C1O (stereo not given)" label_class="false (0)"
compound="CC1SC(c2ccc(N(C)C)cc2)N(NC(=O)C(O)(c2ccccc2)c2ccccc2)C1=O (stereo not given)" label_class="false (0)"
compound=O=C(/C=C/C=C/c1ccc2c(c1)OCO2)N/N=C\c1ccc(O)cc1O label_class="true (1)"
compound=COc1ccc(/C=C/C(=O)c2ccc(O)c(CN3CCN(c4cc5c(cc4F)c(=O)c(C(=O)O)cn5C4CC4)CC3)c2)cc1 label_class="false (0)"
compound="Cc1ccc2oc(=O)cc(C3c4ccc([nH]4)C(c4cc(=O)oc5ccc(C)cc45)c4ccc([nH]4)C(c4cc(=O)oc5ccc(C)cc45)c4ccc([nH]4)C(c4cc(=O)oc5ccc(C)cc45)c4ccc3[nH]4)c2c1 (stereo not given)" label_class="true (1)"
compound=CSc1nc(-c2cccc(NC(=O)CCl)c2)c(C#N)c(=O)n1C label_class="false (0)"
compound=O=[N+]([O-])c1ccccc1/C=N\NC(=S)N/N=C/c1ccccc1[N+](=O)[O-] label_class="false (0)"
compound=Nc1ccc(S(=O)(=O)O)c2ccc(N=Nc3ccc(N=Nc4ccc(S(=O)(=O)O)cc4)c4ccccc34)c(O)c12 label_class="false (0)"
compound=NC(=NCCCC1(c2ccccc2)CCCC1)Nc1ccc(Cl)cc1 label_class="false (0)"
compound=NC(=O)c1cc(I)ccc1NC(=O)/C=C/c1ccccc1Cl label_class="true (1)"
compound=C=CC(=O)Nc1cccc(-c2nc(SC)nc(NCCc3ccc(OC)c(OC)c3)c2C#N)c1 label_class="false (0)"
compound=CC(C)C1=C[C@@]23CC[C@@H]4[C@](C)(CCC[C@@]4(C)C(=O)N4CCCNCC4)[C@H]2C[C@@H]1[C@H]1C(=O)CCC(=O)[C@H]13 label_class="false (0)"
compound=Cc1ccccc1COc1ccc(-c2ccnn2-c2ccc(Cl)cc2)cc1 label_class="false (0)"
compound="CCOc1cc2ncc(C#N)c(Nc3ccc(OCc4cccc(F)c4)c(Cl)c3)c2cc1NC(=O)CCCCC1CCSS1 (stereo not given)" label_class="false (0)"
compound=Clc1ccc2c(NCCCCNc3nc(N4CCOCC4)nc4ccccc34)ccnc2c1 label_class="false (0)"
